Where do the numbers come from? From patent US9555038B2.

Reported IC50 values for the following molecules.
Tested on: HCV replicon 1AQ30D
Test: Cell-based HCV Replicon Assay B, replicon 1AQ30D
Settings: Hepatitis C virus, read-out: 1A Q30D IC50 (nM), replicon 1AQ30D

Molecule	IC50
COC(=O)N[C@H](C(=O)N1CCC[C@H]1c1ncc(-c2cc(F)c3c(c2)OC(c2cnc(C(C)C)s2)n2c-3cc3cc(-c4cnc([C@@H]5C[C@H]6C[C@H]6N5C(=O)[C@@H](NC(=O)OC)C(C)C)[nH]4)ccc32)[nH]1)C(C)C (single isomer, unassigned)	0.081 nM
COC(=O)NC(C(=O)N1[C@@H]2C[C@@H]2C[C@H]1c1ncc(-c2ccc3c(c2)cc2n3C(c3cnc(C4CCC4)s3)Oc3cc(-c4cnc([C@@H]5CCCN5C(=O)[C@@H](NC(=O)OC)C(C)C)[nH]4)cc(C)c3-2)[nH]1)C1C[C@@H](C)O[C@@H](C)C1 (single isomer, unassigned)	0.044 nM

Next up:
Input line: What does the data say about its IC50? Entry: COC(=O)NC(C(=O)N1CCC[C@H]1c1ncc(-c2ccc3c(c2)cc2n3C(c3cnc(C4CC4)s3)Oc3cc(-c4cnc([C@@H]5CCCN5C(=O)[C@@H](NC(=O)OC)C(C)C)[nH]4)cc(F)c3-2)[nH]1)C1C[C@@H](C)O[C@@H](C)C1 (single isomer, unassigned)
Output line: 0.047 nM
